target_or_test_system: T1, Sla1-3, P32790
T1 sequence (P32790 344-424, looked up): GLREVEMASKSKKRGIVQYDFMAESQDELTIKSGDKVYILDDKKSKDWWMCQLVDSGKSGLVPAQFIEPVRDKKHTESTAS
measurement_protocol: SPOT array
reported_conditions: median of control spots 5475
Record form. Attribute: SPOT intensity. Fill in for each entry.
// no unit, no text: just the number

Fill in: SPOT intensity of NFKRLLPRDPSEKSS is ___
156

Fill in: SPOT intensity of FIRKRAPTPPAPSRS is ___
155

Fill in: SPOT intensity of NHSRSLFSLPGNQQS is ___
124

Fill in: SPOT intensity of VRTRRRPPPPPIPST is ___
1790

Fill in: SPOT intensity of PSRRDSLSIPRAVDA is ___
0

Fill in: SPOT intensity of NFLRLLIGLPSQNEL is ___
0

Fill in: SPOT intensity of VRVKKRPLIRPLNSS is ___
22
